assay: HILIC, Waters ACQUITY UPLC BEH Amide, 100 × 2.1 mm, 1.7 µm; A: water + 0.125% formic acid + 10 mM ammonium formate; B: 5% water + 95% acetonitrile + 0.125% formic acid + 10 mM ammonium formate; gradient (min/%B) 0/100 2/100 7.7/70 9.5/40 10.25/30 12.75/100 17/100; settings: stereoisomer not certain
Returns: string. Value is Fulfilled if measured LC retention time is below 2 min, and Not fulfilled if it is greater than or equal to it.

// below: answered molecules
Req: Given CC(C)C12OC1C1OC13C1(C)CCC4=C(COC4=O)C1CC1OC13C2O (stereo not given) [Triptolide] , is recorded LC retention time strictly lower than 2 min?
Resp: Fulfilled

Req: Given CC1NCCOC1c1ccccc1 (stereo not given) [Phenmetrazine] , is recorded LC retention time strictly lower than 2 min?
Resp: Not fulfilled

Req: Given O=C(O)CCCCCCC(O)CC(=O)O (stereo not given) [3-Hydroxysebacic acid] , is recorded LC retention time strictly lower than 2 min?
Resp: Not fulfilled

Req: Given CC(=O)Nc1ccc(O)cc1 [Acetaminophen] , is recorded LC retention time strictly lower than 2 min?
Resp: Fulfilled

Req: Given CNS(=O)(=O)Cc1ccc2[nH]cc(CCN(C)C)c2c1 [Sumatriptan] , is recorded LC retention time strictly lower than 2 min?
Resp: Not fulfilled

Req: Given COC1C(CO)OC(n2cnc3c(=O)[nH]c(N)nc32)C1O (stereo not given) [3'-O-Methylguanosine] , is recorded LC retention time strictly lower than 2 min?
Resp: Not fulfilled

Req: Given CCCCCC=CCC=CCC=CCC=CCCCC(=O)Nc1ccc(O)cc1 [AM 404] , is recorded LC retention time strictly lower than 2 min?
Resp: Fulfilled

Req: Given Nc1nc2nc[nH]c2c(=O)[nH]1 [Guanine] , is recorded LC retention time strictly lower than 2 min?
Resp: Not fulfilled

Now examine the next entry.
Req: Given CN1CCC23c4c5ccc(O)c4OC2C(=O)CCC3C1C5 (stereo not given) [Hydromorphone] , is recorded LC retention time strictly lower than 2 min?
Resp: Not fulfilled

###

assay: HILIC, Waters ACQUITY UPLC BEH Amide, 100 × 2.1 mm, 1.7 µm; A: water + 0.125% formic acid + 10 mM ammonium formate; B: 5% water + 95% acetonitrile + 0.125% formic acid + 10 mM ammonium formate; gradient (min/%B) 0/100 2/100 7.7/70 9.5/40 10.25/30 12.75/100 17/100; conditions: stereoisomer not certain
Hi there, I'd appreciate the recorded LC retention time for every entry that follows.
Give bare numbers, in min.

Guide cases for LC retention time, answers given:
Req: Specify LC retention time for NC(N)=NOCCC(N)C(=O)O (centres undefined) and stop.
Resp: 9.42

Req: Specify LC retention time for O=C(O)CCc1nc(-c2ccccc2)c(-c2ccccc2)o1 and stop.
Resp: 1.11

Req: Specify LC retention time for O=P(O)(O)OCC1OC(OC2OC(CO)C(O)C(O)C2O)C(O)C(O)C1O (centres undefined) [Trehalose-6-phosphate] and stop.
Resp: 9.72

Please state, for each entry, its recorded LC retention time.
1. CC(=O)NCCCCNCCCN
2. CCCc1c(OCCCCc2nn[nH]n2)ccc(C(C)=O)c1O
3. OCC1OC(n2cnc3c(NC4CCCC4)nc(Cl)nc32)C(O)C1O (centres undefined)

Resp:
[8.87, 1.04, 1.47]

Please state, for each entry, its recorded LC retention time.
1. CC(NC(=O)C(Cc1ccc(O)cc1)NC(=O)CN)C(=O)O (centres undefined)
2. CC(=O)N1C(=O)C(=O)c2ccccc21
3. CC(N)Cc1ccccc1 (centres undefined)

Resp:
7.89
2.4
4.6

###

experiment: HILIC, Waters ACQUITY UPLC BEH Amide, 100 × 2.1 mm, 1.7 µm; A: water + 0.125% formic acid + 10 mM ammonium formate; B: 5% water + 95% acetonitrile + 0.125% formic acid + 10 mM ammonium formate; gradient (min/%B) 0/100 2/100 7.7/70 9.5/40 10.25/30 12.75/100 17/100; settings: stereoisomer not certain
Hi there, I'd appreciate the recorded LC retention time for every entry that follows.
Numbers only, in min.

Req: Specify LC retention time for O=C(O)CNC(=O)c1cccnc1 [Nicotinoylglycine] and stop.
Resp: 7.08

Please state, for each entry, its recorded LC retention time.
1. CC(=O)Oc1ccccc1C(=O)Nc1ncc([N+](=O)[O-])s1 [Nitazoxanide]
2. CC(C)CC(N)C(=O)O (stereo not given) [Leucine]
3. NCC(=O)NC(Cc1ccc(O)cc1)C(=O)O (stereo not given) [Gly-Tyr]

Resp:
1
7.08
8.07

Req: Specify LC retention time for CC1CN(CCCn2c3ccccc3c3ccccc32)CC(C)N1 (stereo not given) [Rimcazole] and stop.
Resp: 2.87

###

assay: HILIC, Waters ACQUITY UPLC BEH Amide, 100 × 2.1 mm, 1.7 µm; A: water + 0.125% formic acid + 10 mM ammonium formate; B: 5% water + 95% acetonitrile + 0.125% formic acid + 10 mM ammonium formate; gradient (min/%B) 0/100 2/100 7.7/70 9.5/40 10.25/30 12.75/100 17/100; conditions: stereoisomer not certain
recorded_metric: LC retention time (min)
One number for each entry, in min.

Req: Specify LC retention time for NCCO and stop.
Resp: 7.15

Req: Specify LC retention time for Nc1ncnc2c1ncn2C1OC(CO)C(OP(=O)(O)O)C1O (centres undefined) [Adenosine-3-monophosphate] and stop.
Resp: 8.88

Req: Specify LC retention time for CC(=O)N1CCN(c2ccc(OCC3COC(Cn4ccnc4)(c4ccc(Cl)cc4Cl)O3)cc2)CC1 (centres undefined) and stop.
Resp: 1.73

Req: Specify LC retention time for NC(CCC(=O)NC(CSSCC(N)C(=O)O)C(=O)NCC(=O)O)C(=O)O [L-Cysteine-glutathione disulfide] and stop.
Resp: 10.2

Req: Specify LC retention time for O=c1ccc2ccccc2[nH]1 [2-Hydroxyquinoline] and stop.
Resp: 1.51

Please state, for each entry, its recorded LC retention time.
1. CN1CCCC(n2nc(Cc3ccc(Cl)cc3)c3ccccc3c2=O)CC1 (centres undefined)
2. CCCCCCCCCCCCCC(=O)OC(CO)CO

Resp:
[2.95, 1.01]

Please state, for each entry, its recorded LC retention time.
1. O=C(O)c1ccc[nH]1
2. NC(=O)C=CC(=O)O

Resp:
[5.66, 1.12]

###

experiment: HILIC, Waters ACQUITY UPLC BEH Amide, 100 × 2.1 mm, 1.7 µm; A: water + 0.125% formic acid + 10 mM ammonium formate; B: 5% water + 95% acetonitrile + 0.125% formic acid + 10 mM ammonium formate; gradient (min/%B) 0/100 2/100 7.7/70 9.5/40 10.25/30 12.75/100 17/100; conditions: stereoisomer not certain
Kind request: treat 3 min as inclusive, so LC retention time at 3 min or higher is 1.0, anything lower is 0.0.

// below: answered compounds
Req: Decide: is the reported value of LC retention time for CC(Cc1ccccc1)N(C)Cc1ccccc1 (stereo not given) equal to or greater than 3 min?
Resp: 0.0

Req: Decide: is the reported value of LC retention time for Nc1ncnc2nc[nH]c12 equal to or greater than 3 min?
Resp: 1.0

Req: Decide: is the reported value of LC retention time for CCCCCC=CCC=CCC=CCC=CCCCC(=O)NCCc1ccc(O)c(O)c1 equal to or greater than 3 min?
Resp: 0.0

Req: Decide: is the reported value of LC retention time for COc1nc(C)nc(Cl)c1NC1=NCCN1 equal to or greater than 3 min?
Resp: 1.0

Req: Decide: is the reported value of LC retention time for CC(COc1ccccc1Cc1ccccc1)N1CCCCC1 (stereo not given) equal to or greater than 3 min?
Resp: 0.0

Further cases:
Req: Decide: is the reported value of LC retention time for CC(OC1C(N)C(O)OC(CO)C1O)C(=O)O (stereo not given) equal to or greater than 3 min?
Resp: 1.0

Req: Decide: is the reported value of LC retention time for CCOC(=O)c1ccc(OC(=O)CCCCCN=C(N)N)cc1 [Gabexate] equal to or greater than 3 min?
Resp: 1.0

Req: Decide: is the reported value of LC retention time for CS(=O)CCCCC(=NOS(=O)(=O)O)SC1OC(CO)C(O)C(O)C1O (stereo not given) equal to or greater than 3 min?
Resp: 1.0

Req: Decide: is the reported value of LC retention time for NC1C(O)OC(CO)C(O)C1O (stereo not given) equal to or greater than 3 min?
Resp: 1.0

Req: Decide: is the reported value of LC retention time for CCCCC(N)C(=O)O (stereo not given) equal to or greater than 3 min?
Resp: 1.0

###

assay: HILIC, Waters ACQUITY UPLC BEH Amide, 100 × 2.1 mm, 1.7 µm; A: water + 0.125% formic acid + 10 mM ammonium formate; B: 5% water + 95% acetonitrile + 0.125% formic acid + 10 mM ammonium formate; gradient (min/%B) 0/100 2/100 7.7/70 9.5/40 10.25/30 12.75/100 17/100; conditions: stereoisomer not certain
Returns: string. Value is t if measured LC retention time is below 4 min, and f if it is greater than or equal to it.

// below: answered compounds
Req: Given O=C(CCCN1CC=C(n2c(=O)[nH]c3ccccc32)CC1)c1ccc(F)cc1 , is recorded LC retention time strictly lower than 4 min?
Resp: t

Req: Given CC(N)C(=O)NC(CCC(N)=O)C(=O)O (stereo not drawn) , is recorded LC retention time strictly lower than 4 min?
Resp: f

Further cases:
Req: Given CC1OC(OCC2OC(Oc3c(-c4ccc(O)cc4)oc4cc(O)cc(O)c4c3=O)C(O)C(O)C2O)C(O)C(O)C1O (stereo not drawn) [Kaempferol-3-O-rutinoside] , is recorded LC retention time strictly lower than 4 min?
Resp: f

Req: Given CNC1CC(c2ccc(Cl)c(Cl)c2)c2ccccc21 (stereo not drawn) , is recorded LC retention time strictly lower than 4 min?
Resp: t

Req: Given C=C1CCOC1=O , is recorded LC retention time strictly lower than 4 min?
Resp: t

Req: Given CC(C)CC(N)C(=O)NC(CCCN=C(N)N)C(=O)O (stereo not drawn) , is recorded LC retention time strictly lower than 4 min?
Resp: f

Req: Given CCN(CC)CC(=O)Nc1c(C)cccc1C , is recorded LC retention time strictly lower than 4 min?
Resp: t
